tested on: TCF/LEF luciferase Reporter in DLD1 cells; assay: TCF reporter assay (DLD1 TCF/LEF luciferase reporter, Bright-Glo); assay type: cell-based; conditions: read-out: DLD1 4% Abs IC50; DLD1 reporter, 4%, absolute IC50
MEASURE: IC50 (µM)
Write the number in µM without appending the unit.

Exam item: Which measured IC50 value corresponds to CC(=O)N1CCC[C@]12CC=CCCCC1(CCCC=CCCCOC(=O)N3CC[C@@](C(=O)N[C@@H](Cc4ccccc4C(F)(F)F)C(=O)N[C@@H](Cc4csc5ccccc45)C(=O)N[C@@H](CCC(N)=O)C(=O)N[C@@H](CC(C)C)C(=O)N[C@@H](CCCNC(=N)N)C(N)=O)(C3)NC(=O)[C@H](CC(C)C)NC(=O)[C@H](Cc3ccccc3)NC(=O)[C@H](C)NC(=O)[C@H](C)NC(=O)[C@H](Cc3cccc(C(=O)O)c3)NC(=O)[C@H](CC(=O)O)NC1=O)NC(=O)[C@H](CC(C)(C)C)NC(=O)[C@H](CC(=O)O)NC2=O (stereo partly shown) ?
Marked response: 5.6

###

pIC50 values, listed per item
target: full-length beta-Catenin (Uniprot ID P35222) (Homo sapiens); construct: 10 nM full-length beta-Catenin (Uniprot ID P35222); experiment: Fluorescence polarization IC50 (beta-catenin / 5FAM-TCF4 10-53 competition); format: binding; details: fluorescence polarization; read-out: beta-Catenin FP IC50
Sequence (P35222 whole entry): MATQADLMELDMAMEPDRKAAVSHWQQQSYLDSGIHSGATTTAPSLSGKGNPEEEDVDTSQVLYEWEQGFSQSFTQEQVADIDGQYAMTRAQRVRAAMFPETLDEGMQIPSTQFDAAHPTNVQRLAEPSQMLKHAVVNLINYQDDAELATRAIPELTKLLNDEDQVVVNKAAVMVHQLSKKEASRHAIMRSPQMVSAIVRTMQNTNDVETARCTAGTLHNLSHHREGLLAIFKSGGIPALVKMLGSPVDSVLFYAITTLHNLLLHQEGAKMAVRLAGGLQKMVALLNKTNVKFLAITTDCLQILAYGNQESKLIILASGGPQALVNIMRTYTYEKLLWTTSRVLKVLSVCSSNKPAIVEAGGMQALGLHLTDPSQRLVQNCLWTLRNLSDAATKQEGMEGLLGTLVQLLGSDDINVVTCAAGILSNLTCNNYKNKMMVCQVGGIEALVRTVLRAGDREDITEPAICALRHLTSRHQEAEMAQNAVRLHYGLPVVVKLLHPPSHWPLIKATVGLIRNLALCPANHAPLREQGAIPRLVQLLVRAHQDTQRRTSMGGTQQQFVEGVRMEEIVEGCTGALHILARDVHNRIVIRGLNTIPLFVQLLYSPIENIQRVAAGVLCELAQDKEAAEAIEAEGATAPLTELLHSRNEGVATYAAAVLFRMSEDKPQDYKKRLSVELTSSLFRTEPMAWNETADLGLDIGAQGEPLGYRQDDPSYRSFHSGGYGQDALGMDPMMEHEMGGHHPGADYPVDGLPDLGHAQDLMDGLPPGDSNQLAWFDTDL
Scale: pIC50 equals -log10([C]), with [C] in mol/L.

- COMPOUND: "CC(=O)N1CCC[C@]12CC=CCCCC1(CCCC=CCCCOC(=O)N3CC[C@@](C(=O)N[C@@H](Cc4ccsc4)C(=O)N[C@@H](Cc4csc5ccccc45)C(=O)N[C@@H](CCC(N)=O)C(N)=O)(C3)NC(=O)[C@H](CC(C)C)NC(=O)[C@H](Cc3ccccc3)NC(=O)[C@H](CCCN3CCC(F)(F)CC3)NC(=O)[C@H](C)NC(=O)[C@H](CC(=O)O)NC(=O)[C@H](CC(=O)O)NC1=O)NC(=O)[C@H](CC(C)(C)C)NC(=O)[C@H](CC(=O)O)NC2=O (stereo partly drawn)"
  pIC50: 7.47
- COMPOUND: "CC(=O)N1CCC[C@]12CC=CCCCC1(CCCC=CCCCOC(=O)N3CC[C@@](C(=O)N[C@@H](Cc4ccsc4)C(=O)N[C@@H](Cc4csc5ccccc45)C(=O)N[C@@H](C)C(N)=O)(C3)NC(=O)[C@H](CC(C)C)NC(=O)[C@H](Cc3ccccc3)NC(=O)[C@H](C)NC(=O)[C@H]([C@@H](C)O)NC(=O)[C@H](Cc3cccc(C(=O)O)c3)NC(=O)[C@H](CC(=O)O)NC1=O)NC(=O)[C@H](CC(C)(C)C)NC(=O)[C@H](CC(=O)O)NC2=O (stereo partly drawn)"
  pIC50: 7.80

Okay, next one:
Exam item: Item CC(=O)N1CCC[C@]12CC=CCCCC1(CCCC=CCCCOC(=O)N3CC[C@@](C(=O)N[C@@H](Cc4ccsc4)C(=O)N[C@@H](Cc4csc5ccccc45)C(=O)N[C@@H](CCC(N)=O)C(N)=O)(C3)NC(=O)[C@H](CCC(=O)N3CCOCC3)NC(=O)[C@H](Cc3ccccc3)NC(=O)[C@H](C)NC(=O)[C@H](C)NC(=O)[C@H](CN(CC(=O)O)CC(F)(F)F)NC(=O)[C@H](CC(=O)O)NC1=O)NC(=O)[C@H](CC(C)(C)C)NC(=O)[C@H](CC(=O)O)NC2=O (stereo partly drawn) has what recorded pIC50?
Marked response: 8.15
